Tested on: wheat germ agglutinin (Triticum aestivum), Alexa647-labelled
testDescription: wheat germ agglutinin binders on compound microarrays, profiling panel, artefact control for SMM control-protein annotation, biochemical, small-molecule microarray, 635/667 nm fluorescence (AID 1140);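 also: score merges 667 nm feature emission with signal to noise over triplicate slides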
testParameters: WGA-A647 binding, 635 nm fluorescence, higher = more signal
Catalogue of composite z-score values
API note: the answer field is a bare number with no unit suffix.

In the examples that follow, each entry is paired with its recorded composite z-score.
[[record]]
querysmiles = "C=CC[C@]1(C(=O)NCCCOC)N=C(c2ccc(OCCCO)cc2)O[C@H]1c1ccccc1CN=[N+]=[N-]"
numericreadout = 0.934

[[record]]
querysmiles = "C=CCN1C(=O)[C@@]2(CC=C)N=C(c3ccc(OCCCO)cc3)O[C@H]2c2ccccc21"
numericreadout = 0.503

[[record]]
querysmiles = "COC(=O)[C@@]1(Cc2ccc(OC)cc2)[C@H]2c3cc(C(=O)N(C)C)n(Cc4ccccn4)c3C[C@H]2CN1C(=O)c1ccccc1"
numericreadout = 1.35


Let us move to another entry and its composite z-score.
Query: Endpoint output: composite z-score of C=CCNC(=O)[C@@H]1[C@H]2C(=O)O[C@H](c3ccccc3)[C@H](c3ccccc3)N2[C@H](c2ccc(O)cc2)[C@@]12C(=O)N(C(=O)OCCOC)c1ccc(C#CCNC(N)=O)cc12 . Value?
Result: 0.834

====

testDescription: Plasmodium falciparum growth inhibition, primary screen, strain 3D7, DAPI fluorescence, 100 nL (AID 1184);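 also: parasites grown inside human red blood cells in medium with human serum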
testParameters: P. falciparum 3D7 growth, 3 d, higher = more signal
Recorded z-score for the following compounds
Lab note: jot down the number only; don't add units.

Please review the following examples before continuing.
[[record]]
querysmiles = "CCC[C@@H]1C[C@@]1(CCC)[C@@H](NS(=O)(=O)c1cccc2cccnc12)c1ccc(Cl)cc1"
numericreadout = -0.586

[[record]]
querysmiles = "C=C(CCCC)/C(=C/C[C@@H](OC(C)=O)c1ccc(OCCO)cc1)c1cnc2ccccc2c1"
numericreadout = -3

[[record]]
querysmiles = "O=C(c1ccccc1)N1C(=O)[C@]2(COC(c3ccc(OCCCO)cc3)=N2)Cc2ccccc21"
numericreadout = -2.14


Continue with the next compound.
Query: Quick one: z-score of COCCOC(=O)N1C(=O)[C@@]2(c3cc(C#CCCO)ccc31)[C@H](C(N)=O)[C@H]1C(=O)O[C@H](c3ccccc3)[C@H](c3ccccc3)N1[C@@H]2c1ccc(O)cc1 ?
Result: 2.08

====

testDescription: A549 cell viability effects, profiling panel, calcein-AM fluorescence, 48 h, basal (AID 1162); also: test concentration not given here
testParameters: higher = more signal
Below, each of the molecules is paired with its reported z-score value.
Give only the figure.

[[record]]
molecule = "CCOC(=O)C[C@H]1[C@H](OC(=O)c2ccc(C(=O)c3ccccc3)cc2)[C@@H](NC(=O)c2ccccc2)c2cc(OCCCO)ccc2N1C(=O)c1ccc2ccccc2n1"
numericreadout = 0.29

[[record]]
molecule = "NC(=O)N1C(=O)C2C(C1=O)C1C=C(c3ccc(CO)cc3)C2C(c2cccs2)N1Cc1cccc(OC(F)(F)F)c1 (stereo not drawn)"
numericreadout = 1.56


Turning now to a further molecule:
Query: Which z-score value belongs to CC(C)C[C@@H]1NC(=O)[C@H](C(C)C)NC(=O)[C@@]23C(=O)N[C@@H](Cc4ccccc4)C2[C@H](C)[C@@]2(C)O[C@H]2C3/C=C/CC/C=C/CNC1=O (stereo partly drawn) ?
Result: -0.642
